Tested on: B16 melanoma
Assay: In vivo antitumor activity against B16 melanoma
Set-up: species or system BDF1 mice
Settings: at optimal dose, ip days 1, 5, 9
*1 amine or outer side, *2 acyl side, *3 side chain or, on linkers, in order; H or OH if unused. Where a SMILES comes first, the peptide text is derived from it. Bridges are numbered along the chain shown (N, C = ends). Roman numbers before positions name the chains, in order. [ ]: non-standard residue; d: D form. Actinocin(9to1) = Cc1c2oc3c(C)ccc(C(=O)[*:1])c3nc-2c(C(=O)[*:2])c(N)c1=O; NMeV = CN[C@H](C(=O)O)C(C)C; Sar = CNCC(=O)O
Result Type: % ILS (%)
Numbers only, in %.

Before answering, review these 3 worked examples.
Cc1c2oc3c(C)c4oc(CC(=O)NCCCCN)nc4c(C(=O)N[C@@H]4C(=O)N[C@H](C(C)C)C(=O)N5CCC[C@H]5C(=O)N(C)CC(=O)N(C)[C@@H](C(C)C)C(=O)O[C@@H]4C)c3nc-2c(C(=O)N[C@@H]2C(=O)N[C@H](C(C)C)C(=O)N3CCC[C@H]3C(=O)N(C)CC(=O)N(C)[C@@H](C(C)C)C(=O)O[C@@H]2C)c(N)c1=O
114
Cc1nc2c(C(=O)N[C@@H]3C(=O)N[C@H](C(C)C)C(=O)N4CCC[C@H]4C(=O)N(C)CC(=O)N(C)[C@@H](C(C)C)C(=O)O[C@@H]3C)c3nc4c(C(=O)N[C@@H]5C(=O)N[C@H](C(C)C)C(=O)N6CCC[C@H]6C(=O)N(C)CC(=O)N(C)[C@@H](C(C)C)C(=O)O[C@@H]5C)c(N)c(=O)c(C)c-4oc3c(C)c2o1
124
Cc1c2oc3c(C)c(O)c(N)c(C(=O)N[C@@H]4C(=O)N[C@H](C(C)C)C(=O)N5CCC[C@H]5C(=O)N(C)CC(=O)N(C)[C@@H](C(C)C)C(=O)O[C@@H]4C)c3nc-2c(C(=O)N[C@@H]2C(=O)N[C@H](C(C)C)C(=O)N3CCC[C@H]3C(=O)N(C)CC(=O)N(C)[C@@H](C(C)C)C(=O)O[C@@H]2C)c(N)c1=O
96

Please go through the list and note % ILS for each compound.
1. Cc1c2oc3c(C)ccc(C(=O)N[C@@H]4C(=O)N[C@H](C(C)C)C(=O)N5CCC[C@H]5C(=O)N(C)CC(=O)N(C)[C@@H](C(C)C)C(=O)O[C@@H]4C)c3nc-2c(C(=O)N[C@@H]2C(=O)N[C@H](C(C)C)C(=O)N3CCC[C@H]3C(=O)N(C)CC(=O)N(C)[C@@H](C(C)C)C(=O)O[C@@H]2C)c(N)c1=O [AMD (1), Actinomycin D] (I: T[dV]P[Sar][NMeV] / II: T[dV]P[Sar][NMeV]; ester I:1-I:C, II:1-II:C; linker I:N-II:N via Actinocin(9to1))
2. Cc1c2oc3c(C)c4oc(-c5ccccc5)nc4c(C(=O)N[C@@H]4C(=O)N[C@H](C(C)C)C(=O)N5CCC[C@H]5C(=O)N(C)CC(=O)N(C)[C@@H](C(C)C)C(=O)O[C@@H]4C)c3nc-2c(C(=O)N[C@@H]2C(=O)N[C@H](C(C)C)C(=O)N3CCC[C@H]3C(=O)N(C)CC(=O)N(C)[C@@H](C(C)C)C(=O)O[C@@H]2C)c(N)c1=O

48
103
